Assign OD value to each entry below.
measuredTarget: T1, human Nectin-4 extracellular antigen hNectin-4-His (human, UniProt Q96NY8 32-349)
T1 construct: C-terminal 8xHis tag included
T1 sequence: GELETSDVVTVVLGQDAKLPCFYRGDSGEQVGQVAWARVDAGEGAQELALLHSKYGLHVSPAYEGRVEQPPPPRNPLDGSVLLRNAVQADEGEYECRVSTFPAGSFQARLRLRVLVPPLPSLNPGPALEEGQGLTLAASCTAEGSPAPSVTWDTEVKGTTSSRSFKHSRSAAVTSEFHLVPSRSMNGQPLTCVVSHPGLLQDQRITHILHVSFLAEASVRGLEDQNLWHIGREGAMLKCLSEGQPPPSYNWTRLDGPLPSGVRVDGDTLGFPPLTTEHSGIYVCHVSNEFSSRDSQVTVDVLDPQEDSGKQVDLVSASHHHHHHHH
test: ELISA, phage scFv supernatant 1:50
Give the number; OD is assumed, so skip it.

For 1G8-2B10 scFv (scFv, V domains shown, phage clone supernatant) VH: EVQLVESGGGLVQPGGSLRLSCAASGFSFTNNAMSWVRQAPGKGLEWVSRIDTIGGTSSYADSVKGRFTISRDNSKNTLYLQMNSLRAEDTAVYYCARQTEDRSYGYDLDYWGQGTLVTVSS VL: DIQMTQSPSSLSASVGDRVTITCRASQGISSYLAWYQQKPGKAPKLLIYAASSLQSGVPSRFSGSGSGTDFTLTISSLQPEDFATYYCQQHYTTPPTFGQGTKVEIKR , what is its reported OD value?
1.56

Try this binder too: 1F3-2F1 scFv (scFv, V domains shown, phage clone supernatant) VH: EVQLVESGGGLVQPGGSLRLSCAASGDIFTGYSMSWVRQAPGKGLEWVSGIYQTGSNTRYADSVKGRFTISRDNSKNTLYLQMNSLRAEDTAVYYCARAELLAFDVYTASDYWGQGTLVTVSS VL: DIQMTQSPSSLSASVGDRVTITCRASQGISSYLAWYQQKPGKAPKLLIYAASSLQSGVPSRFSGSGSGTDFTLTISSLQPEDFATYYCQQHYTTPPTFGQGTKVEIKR
1.02

Try this binder too: 1G8-2D4 scFv (scFv, V domains shown, phage clone supernatant) VH: EVQLVESGGGLVQPGGSLRLSCAASGYNFGGYAMSWVRQAPGKGLEWVSRISGTSGNNDYADSVKGRFTISRDNSKNTLYLQMNSLRAEDTAVYYCARQTEDRSYGYDLDYWGQGTLVTVSS VL: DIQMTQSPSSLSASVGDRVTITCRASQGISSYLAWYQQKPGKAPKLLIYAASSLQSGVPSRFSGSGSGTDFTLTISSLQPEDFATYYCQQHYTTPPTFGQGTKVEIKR
1.58
